Entries annotated with measured DC50
# Measurement Target: BRAF G466V (Homo sapiens, UniProt P15056, G466V)
# Construct: expressed in transfected cells
# Sequence (P15056 whole entry G466V): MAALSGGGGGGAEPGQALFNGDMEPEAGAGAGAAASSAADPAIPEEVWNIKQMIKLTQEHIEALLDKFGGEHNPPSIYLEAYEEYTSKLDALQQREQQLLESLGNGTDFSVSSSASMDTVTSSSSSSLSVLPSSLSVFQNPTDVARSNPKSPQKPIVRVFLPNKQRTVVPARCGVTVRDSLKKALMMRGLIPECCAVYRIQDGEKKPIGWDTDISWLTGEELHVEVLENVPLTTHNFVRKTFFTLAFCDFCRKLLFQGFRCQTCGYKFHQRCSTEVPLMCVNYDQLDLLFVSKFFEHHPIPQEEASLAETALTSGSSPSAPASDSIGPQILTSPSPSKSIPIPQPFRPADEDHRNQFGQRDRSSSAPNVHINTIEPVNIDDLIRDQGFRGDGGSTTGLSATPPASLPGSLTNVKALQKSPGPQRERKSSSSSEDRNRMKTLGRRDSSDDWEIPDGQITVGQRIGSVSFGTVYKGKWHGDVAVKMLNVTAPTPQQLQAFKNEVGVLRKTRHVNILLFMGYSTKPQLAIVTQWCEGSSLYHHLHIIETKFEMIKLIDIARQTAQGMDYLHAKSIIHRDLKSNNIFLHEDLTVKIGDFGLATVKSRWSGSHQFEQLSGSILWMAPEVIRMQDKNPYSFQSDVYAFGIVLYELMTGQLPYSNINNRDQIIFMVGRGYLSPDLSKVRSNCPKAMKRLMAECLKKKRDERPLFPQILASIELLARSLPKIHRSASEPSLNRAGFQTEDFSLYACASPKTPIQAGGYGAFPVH
# Assay Method Text: Cellular assay of target protein degradation, T-Rex 293 cells stably transfected with HA-BRAF G466V (HA immunofluorescence, high content imaging)
# Format: cell-based
# Cond: half maximal degradation, T-Rex 293 HA-BRAF G466V; read-out: BRaf G466V DC50

{"Compound": "O=C1CCC(N2Cc3cc(N4CC(CN5CCC(C6(c7ccc(-c8cnc9[nH]cc(C(=O)c%10c(F)ccc(NS(=O)(=O)N%11CC[C@@H](F)C%11)c%10F)c9c8)cc7)CC6)CC5)C4)ccc3C2=O)C(=O)N1 (stereo partly drawn)", "Recorded Measurement": "1 to 10 nM"}
{"Compound": "Cn1c(=O)n(C2CCC(=O)NC2=O)c2cccc(C3CCN(CC4CCN(c5ccc(-c6cnc7[nH]cc(C(=O)c8c(F)ccc(NS(=O)(=O)N9CC[C@@H](F)C9)c8F)c7c6)cc5)CC4)CC3)c21 (stereo partly drawn)", "Recorded Measurement": "1 to 10 nM"}
{"Compound": "COc1cc([C@@H](O)CCN2CCN(c3ccc(-c4cnc5[nH]cc(C(=O)c6c(F)ccc(NS(=O)(=O)N7CC[C@@H](F)C7)c6F)c5c4)cc3)CC2)cc2c1C(=O)N([C@@H]1CCC(=O)NC1=O)C2", "Recorded Measurement": "1 to 10 nM"}
{"Compound": "CCc1ccc(NS(=O)(=O)N2CC[C@@H](F)C2)c(F)c1C(=O)c1c[nH]c2ncc(-c3ccc(N4CCC(CN5CCC(c6ccc7c(c6)CN([C@H]6CCC(=O)NC6=O)C7=O)CC5)CC4)cc3)cc12", "Recorded Measurement": "> 30 nM"}
{"Compound": "C[C@@]12CN(CC3CCN(c4ccc5c(c4)CN([C@H]4CCC(=O)NC4=O)C5=O)CC3)C[C@@H]1CN(c1ccc(-c3cnc4[nH]cc(C(=O)c5c(F)ccc(NS(=O)(=O)N6CC[C@@H](F)C6)c5F)c4c3)cc1)C2", "Recorded Measurement": "1 to 10 nM"}
{"Compound": "COc1cc(N2CC(N3CCN(c4ccc(-c5cnc6[nH]cc(C(=O)c7c(F)ccc(NS(=O)(=O)N8CC[C@@H](F)C8)c7F)c6c5)cc4)CC3)C2)cc2c1C(=O)N(C1CCC(=O)NC1=O)C2 (stereo partly drawn)", "Recorded Measurement": "> 30 nM"}
{"Compound": "O=C1CC[C@H](N2Cc3cc(C[C@H](O)CN4CCC(c5ccc(-c6cnc7[nH]cc(C(=O)c8c(F)ccc(NS(=O)(=O)N9CC[C@@H](F)C9)c8F)c7c6)cc5)CC4)ccc3C2=O)C(=O)N1", "Recorded Measurement": "1 to 10 nM"}
{"Compound": "CN(CCN1CCN(c2ccc3c(c2)CN(C2CCC(=O)NC2=O)C3=O)CC1)[C@H]1C[C@@H](Oc2ccc(-c3cnc4[nH]cc(C(=O)c5c(F)ccc(NS(=O)(=O)N6CC[C@@H](F)C6)c5F)c4c3)cc2)C1 (stereo partly drawn)", "Recorded Measurement": "1 to 10 nM"}

Please look at the following compound next.
Q: Item `Cc1c(NS(=O)(=O)N2CC[C@@H](F)C2)ccc(F)c1C(=O)c1c[nH]c2ncc(-c3ccc(N4CCC(CN5CCC(c6ccc7c(c6)CN([C@H]6CCC(=O)NC6=O)C7=O)CC5)CC4)cc3)cc12` has what recorded DC50?
A: 1 to 10 nM
